Test: Compound was evaluated for pharmacokinetic parameter, Cmax in rat at 25 mg/kg po
Type: ADME, organism-based
Set-up: dose 25 mg/kg, route oral
Conditions: in vivo
recorded metric: Cmax (µM)
Response body: numeric value in µM, unit text excluded.

State, in one line, measured Cmax of Cc1cc(SC2=C(O)O[C@](CCc3ccsc3)(C(C)C)CC2=O)c(C(C)(C)C)cc1CO 14.7

====

Test: Compound was evaluated for pharmacokinetic parameter, Tmax
Format: ADME, organism-based
Conditions: in vivo
Tmax values, listed per item
Response body: numeric value in min, unit text excluded.

A selection of reference data follows.
compound	experimental value
Cc1cc(SC2=C(O)OC(CCc3nccs3)(C(C)C)CC2=O)c(C(C)(C)C)cc1CO (stereo unspecified)	30
Cc1cc(SC2=C(O)OC(CCc3ccoc3)(C(C)C)CC2=O)c(C(C)(C)C)cc1CO (stereo unspecified)	30
Cc1cc(SC2=C(O)OC(CCc3ccsc3)(C(C)C)CC2=O)c(C(C)(C)C)cc1CO (stereo unspecified)	30
Cc1cc(SC2=C(O)O[C@](CCc3ccc(N)cc3)(C(C)C)CC2=O)c(C(C)(C)C)cc1CO	30
Cc1cc(SC2=C(O)OC(CCc3ccc(N)cc3)(C(C)C)CC2=O)c(C(C)(C)C)cc1CO (racemic)	30

Could you now consider this next compound?
State, in one line, measured Tmax of Cc1cc(SC2=C(O)OC(CCc3cccnc3)(C(C)C)CC2=O)c(C(C)(C)C)cc1CO (stereo unspecified) 30
